Reference source: patent US10793580B2

# testedTarget: human PDE4D catalytic domain (Homo sapiens (Human))
# Sequence (Q08499 380-740): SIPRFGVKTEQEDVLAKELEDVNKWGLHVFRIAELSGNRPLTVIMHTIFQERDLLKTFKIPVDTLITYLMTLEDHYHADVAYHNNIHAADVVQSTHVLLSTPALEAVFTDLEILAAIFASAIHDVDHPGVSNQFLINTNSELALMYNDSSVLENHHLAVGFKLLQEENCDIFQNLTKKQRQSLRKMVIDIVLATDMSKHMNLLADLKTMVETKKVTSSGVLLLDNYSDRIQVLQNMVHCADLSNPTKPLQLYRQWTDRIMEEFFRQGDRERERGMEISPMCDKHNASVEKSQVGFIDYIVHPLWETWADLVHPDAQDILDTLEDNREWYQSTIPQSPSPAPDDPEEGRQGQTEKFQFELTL
# methodNotes: PDE4 Assay (TR-FRET, FAM-cAMP cleavage)
# Type: biochemical
# conditionDetails: human PDE4D catalytic domain (UniProt Q08499 [S380-L740]); 50% inhibition of substrate cleavage; read-out: PDE4 IC50 range
readoutName: IC50

smilesText: CCn1nc(CCCOC(=O)c2cc(OC)ccc2Cl)c2c1C(=O)NCC1(CCOCC1)C2
IC50: < 100 nM
//
smilesText: CCn1nc(CC(C)(C)COC(=O)c2ccc(S(=O)(=O)C(C)C)cc2)c2c1C(=O)NCC1(CCOCC1)C2
IC50: < 100 nM
//
smilesText: CCn1nc(CCOC(=O)C2CCCC2)c2c1C(=O)NCC1(CCOCC1)C2
IC50: < 100 nM
//
smilesText: CCn1nc(CCCOC(=O)c2ccc(S(=O)(=O)NC)cc2)c2c1C(=O)NCC1(CCOCC1)C2
IC50: < 100 nM
//
smilesText: CCn1nc(CCCOC(=O)C2CCN(C(=O)OC)CC2)c2c1C(=O)NCC1(CCOCC1)C2
IC50: < 100 nM

Give IC50 for each of the items listed below.
1. CCn1nc(C[C@@H](C)COC(=O)c2ccc(C(=O)N3CCOCC3)cc2)c2c1C(=O)NCC1(CCOCC1)C2
2. CCn1nc(CCCOC(=O)c2cc(F)cc(Cl)c2)c2c1C(=O)NCC1(CCOCC1)C2
3. CCn1nc(CCCOC(=O)c2cccc(Cl)c2F)c2c1C(=O)NCC1(CCOCC1)C2
4. CCn1nc(CCCOC(=O)c2cccc(C(=O)N3CCOCC3)c2)c2c1C(=O)NCC1(CCOCC1)C2
5. CCn1nc(CC(C)(C)COC(=O)c2ccc(S(=O)(=O)N3CCN(C(C)=O)CC3)cc2)c2c1C(=O)NCC1(CCOCC1)C2
6. CCn1nc(CCCOC(=O)c2cccc(Cl)c2OC)c2c1C(=O)NCC1(CCOCC1)C2

["< 100 nM", "< 100 nM", "< 100 nM", "< 100 nM", "< 100 nM", "< 100 nM"]

Each of the following entries comes with a recorded value; kindly state IC50 for each.
1. CCn1nc(CC(C)(C)COC(=O)c2cccc(F)c2)c2c1C(=O)NCC1(CCOCC1)C2
2. CCn1nc(CCCOC(=O)c2cccc(C(F)(F)F)c2C)c2c1C(=O)NCC1(CCOCC1)C2
3. CCn1nc(CC(C)(C)COC(=O)c2cccc(OC)c2)c2c1C(=O)NCC1(CCOCC1)C2
4. CCn1nc(CCCCOC(=O)C2CCOCC2)c2c1C(=O)NCC1(CCOCC1)C2
5. CCn1nc(CC(C)(C)COC(=O)c2cccc(C(=O)N(C)C)c2)c2c1C(=O)NCC1(CCOCC1)C2

1: < 100 nM; 2: < 100 nM; 3: < 100 nM; 4: < 100 nM; 5: < 100 nM
